target: biphenyl dioxygenase of P. pseudoalcaligenes KF707 (SEQ ID NO:3) (Metapseudomonas furukawaii); construct: expressed in transfected cells; host or cells: Escherichia coli JM109 (pJHF108); experiment: Biotransformation kinetics by whole cells of E. coli expressing biphenyl dioxygenase; type: biochemical, Pseudomonas pseudoalcaligenes strain KF707; details: initial concentration of substrate 250 μM; 5 h reaction; whole cells of E. coli expressing BDO, 37° C.; means of triplicate ± standard errors
Sequence (Q52028 whole entry M237T/S238T/M247I/H255Q/V258I/G268A/F277Y/M283S/M285L/D303E/T340I): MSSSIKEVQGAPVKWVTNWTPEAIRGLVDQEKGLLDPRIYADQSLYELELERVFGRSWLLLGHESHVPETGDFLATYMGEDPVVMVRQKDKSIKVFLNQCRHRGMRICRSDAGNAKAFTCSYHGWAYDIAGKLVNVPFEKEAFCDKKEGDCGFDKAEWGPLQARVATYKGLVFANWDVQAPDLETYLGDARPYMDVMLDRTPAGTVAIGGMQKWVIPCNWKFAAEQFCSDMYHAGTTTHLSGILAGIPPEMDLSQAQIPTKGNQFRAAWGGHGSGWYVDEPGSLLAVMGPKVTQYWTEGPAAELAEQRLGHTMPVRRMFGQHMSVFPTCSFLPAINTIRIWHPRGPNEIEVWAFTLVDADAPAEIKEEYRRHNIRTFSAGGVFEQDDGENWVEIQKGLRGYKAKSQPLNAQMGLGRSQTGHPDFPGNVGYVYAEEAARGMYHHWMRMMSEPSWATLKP
Metric: Corresponding epoxides produced after 5 h reaction (µM)
Number in µM, nothing else.

Reference set, count: 3
1) O[C@H]1c2ccccc2OC[C@H]1c1ccccc1 (stereo in doubt) [(3R,4R)-cis-isoflavan-4-ol]; 40
2) O[C@@H]1c2ccccc2OC[C@@H]1c1ccccc1 (stereo in doubt) [(3S,4S)-cis-isoflavan-4-ol]; 194.8
3) O[C@H]1c2ccccc2OC[C@@H]1c1ccccc1 (stereo in doubt) [(3S,4R)-trans-isoflavan-4-ol]; 141.1

Now take the following compound into account.
Lab book: Corresponding epoxides produced after 5 h reaction of O[C@@H]1c2ccccc2OC[C@H]1c1ccccc1 (stereo in doubt) [(3R,4S)-trans-isoflavan-4-ol] noted as 163.3

Hey, just so you know, these numbers are from patent US8765420B2.
